biological target: Orexin/Hypocretin receptor type 1 (Homo sapiens, UniProt O43613); assay: Agonist activity at human OX1 receptor overexpressed in CHO-RD-HGA16 cells assessed as calcium mobilization after 15 mins by fluorescence assay
Sequence (O43613 whole entry): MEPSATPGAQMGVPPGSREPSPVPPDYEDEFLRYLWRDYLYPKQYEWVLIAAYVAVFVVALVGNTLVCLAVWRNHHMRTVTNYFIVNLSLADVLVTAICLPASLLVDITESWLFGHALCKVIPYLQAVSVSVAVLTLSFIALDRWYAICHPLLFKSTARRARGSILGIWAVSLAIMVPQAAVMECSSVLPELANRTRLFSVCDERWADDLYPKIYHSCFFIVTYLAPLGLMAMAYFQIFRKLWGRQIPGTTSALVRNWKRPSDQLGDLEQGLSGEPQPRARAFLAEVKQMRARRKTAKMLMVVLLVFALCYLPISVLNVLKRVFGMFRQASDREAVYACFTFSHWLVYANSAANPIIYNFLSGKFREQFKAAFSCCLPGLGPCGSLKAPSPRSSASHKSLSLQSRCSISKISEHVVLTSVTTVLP
Where a SMILES comes first, the peptide text is derived from it.
measurement.kind: EC50 (nM)
Give bare numbers, in nM.

*Q* For the compound shown here, CC[C@H](C)[C@H](NC(=O)CNC(=O)[C@H](C)NC(=O)[C@H](C)NC(=O)[C@H](Cc1cnc[nH]1)NC(=O)[C@H](CC(N)=O)NC(=O)[C@H](C)NC(=O)[C@H](C)NC(=O)CNC(=O)[C@H](Cc1cnc[nH]1)NC(=O)[C@H](CC(C)C)NC(=O)[C@H](CC(C)C)NC(=O)[C@H](CCC(=O)O)NC(=O)[C@@H](N)Cc1ccc(O)cc1)C(=O)N[C@@H](CC(C)C)C(=O)N[C@H](C(=O)N[C@@H](CC(C)C)C(N)=O)[C@@H](C)O (H-YELLHGAANHAAGILTL-NH2) , give the reported EC50.
*A* 1040

// moving on: another record for EC50
*Q* For the compound shown here, CC[C@H](C)[C@H](NC(=O)CNC(=O)[C@H](C)NC(=O)[C@H](C)NC(=O)[C@H](Cc1cnc[nH]1)NC(=O)[C@H](CC(N)=O)NC(=O)CNC(=O)[C@H](C)NC(=O)CNC(=O)[C@@H]1CCCN1C(=O)[C@H](CC(C)C)NC(=O)[C@H](CC(C)C)NC(=O)[C@H](CCC(=O)O)NC(=O)[C@@H](N)Cc1ccc(O)cc1)C(=O)N[C@@H](CC(C)C)C(=O)N[C@H](C(=O)N[C@@H](CC(C)C)C(N)=O)[C@@H](C)O (H-YELLPGAGNHAAGILTL-NH2) , give the reported EC50.
*A* 1200

* * *

target: Orexin/Hypocretin receptor type 1 (Homo sapiens, UniProt O43613); test: Agonist activity at human OX1 receptor overexpressed in CHO-RD-HGA16 cells assessed as calcium mobilization after 15 mins by fluorescence assay
Record form. Attribute: pEC50. Fill in for each entry.
Numbers only, as −log10 of the molar value.

Recorded results for 4 compounds are shown here.
*Q* Return pEC50 measured with Orexin/Hypocretin receptor type 1 (Homo sapiens, UniProt O43613) given this compound: `CC[C@H](C)[C@H](NC(=O)CNC(=O)[C@H](C)NC(=O)[C@@H](C)NC(=O)[C@H](Cc1cnc[nH]1)NC(=O)[C@H](CC(N)=O)NC(=O)CNC(=O)[C@H](C)NC(=O)CNC(=O)[C@H](Cc1cnc[nH]1)NC(=O)[C@H](CC(C)C)NC(=O)[C@H](CC(C)C)NC(=O)[C@H](CCC(=O)O)NC(=O)[C@@H](N)Cc1ccc(O)cc1)C(=O)N[C@@H](CC(C)C)C(=O)N[C@H](C(=O)N[C@@H](CC(C)C)C(N)=O)[C@@H](C)O`
*A* 5.72

*Q* Repeat with `CC[C@H](C)[C@H](NC(=O)CNC(=O)[C@H](C)NC(=O)[C@H](C)NC(=O)[C@H](Cc1cnc[nH]1)NC(=O)[C@H](CC(N)=O)NC(=O)CNC(=O)[C@H](C)NC(=O)CNC(=O)[C@H](Cc1cnc[nH]1)NC(=O)[C@H](CC(C)C)NC(=O)[C@H](CC(C)C)NC(=O)[C@@H](CCC(=O)O)NC(=O)[C@@H](N)Cc1ccc(O)cc1)C(=O)N[C@@H](CC(C)C)C(=O)N[C@H](C(=O)N[C@@H](CC(C)C)C(N)=O)[C@@H](C)O`
*A* 6.13

*Q* Repeat with `CC[C@H](C)[C@H](NC(=O)CNC(=O)[C@H](C)NC(=O)[C@H](C)NC(=O)[C@@H](Cc1cnc[nH]1)NC(=O)[C@H](CC(N)=O)NC(=O)CNC(=O)[C@H](C)NC(=O)CNC(=O)[C@H](Cc1cnc[nH]1)NC(=O)[C@H](CC(C)C)NC(=O)[C@H](CC(C)C)NC(=O)[C@H](CCC(=O)O)NC(=O)[C@@H](N)Cc1ccc(O)cc1)C(=O)N[C@@H](CC(C)C)C(=O)N[C@H](C(=O)N[C@@H](CC(C)C)C(N)=O)[C@@H](C)O`
*A* 5.24

*Q* Repeat with `CC[C@H](C)[C@H](NC(=O)CNC(=O)[C@H](C)NC(=O)[C@H](C)NC(=O)[C@H](Cc1cnc[nH]1)NC(=O)[C@H](CC(N)=O)NC(=O)CNC(=O)[C@H](C)NC(=O)CNC(=O)[C@H](Cc1cnc[nH]1)NC(=O)[C@@H](CC(C)C)NC(=O)[C@H](CC(C)C)NC(=O)[C@H](CCC(=O)O)NC(=O)[C@@H](N)Cc1ccc(O)cc1)C(=O)N[C@@H](CC(C)C)C(=O)N[C@H](C(=O)N[C@@H](CC(C)C)C(N)=O)[C@@H](C)O`
*A* 6.27

// moving on: another record for pEC50
*Q* Return pEC50 measured with Orexin/Hypocretin receptor type 1 (Homo sapiens, UniProt O43613) given this compound: `CC[C@H](C)[C@H](NC(=O)CNC(=O)[C@H](C)NC(=O)[C@H](C)NC(=O)[C@H](Cc1cnc[nH]1)NC(=O)[C@H](CC(N)=O)NC(=O)CNC(=O)[C@H](C)NC(=O)CNC(=O)[C@H](Cc1cnc[nH]1)NC(=O)[C@H](CC(C)C)NC(=O)[C@@H](CC(C)C)NC(=O)[C@H](CCC(=O)O)NC(=O)[C@@H](N)Cc1ccc(O)cc1)C(=O)N[C@@H](CC(C)C)C(=O)N[C@H](C(=O)N[C@@H](CC(C)C)C(N)=O)[C@@H](C)O`
*A* 6.28

Reference for the values: ChEMBL document CHEMBL3102805
